test system: Mus musculus; assay: In vivo evaluation of percent increase in life span (ILS) against P388 lymphocytic leukemia in infected CD2F1 male mice and at 10 dose mg/kg; format: functional
Returns met if the recorded ILS is greater than or equal to 20%, and not met otherwise.

# MOLECULE, CLASS NAME
rows = [
    ("CC1(C)CC(NP(=S)(N2CC2)N2CC2)CC(C)(C)N1[O]", "met"),
    ("CN(C1CC(C)(C)N([O])C(C)(C)C1)P(=S)(NCCCl)N1CC1 (stereo not given)", "not met"),
    ("CC1(C)CC(OP(=O)(N2CC2)N2CC2)CC(C)(C)N1[O]", "met"),
]

Then this molecule:
Hello, I need to know if "CC1(C)CC(NP(=S)(N2CC2)N2CC2)CC(C)(C)N1O" has measured ILS not below 20%. Thanks! met
